experiment: Caspase-3/7 induction in CHO-K1 cells by small molecules, qHTS cell viability counter screen (AID 1346979); details: CellTiter-Fluor fluorescence, 17 h; series mostly up to 92.4 µM; also: nearly all actives have a fitted effect of over 35% in size
Results filed as inconclusive are left out. Activity calls are given as the source filed them. Calls follow the shape of the dose curve; as a rule, active = well fitted cell-killing curve with a large enough effect in the repeat runs; inconclusive = weak or mixed curves, or effect the other way; inactive = no such curve, though single readings can be large or run the other way.
Form entry, call: pick from 1 for active, 0 for inactive

Below, 5 molecules whose answers are already recorded.
molecule: O=c1c(-c2ccccc2)c1-c1ccccc1
assigned.label: 1
--
molecule: CC1=C(/C=C/C(C)=C/C=C/C(C)=C/C=O)C(C)(C)CCC1
assigned.label: 1
--
molecule: O=C(Oc1cccc2cccnc12)c1ccccc1
assigned.label: 1
--
molecule: N#CSc1ccc(N)c([N+](=O)[O-])c1
assigned.label: 1
--
molecule: CCCCCCCCOC(=O)c1ccc(O)cc1
assigned.label: 1

Record lookup: outcome of this test for `CCCN(CCC)c1c([N+](=O)[O-])cc(C(F)(F)F)c(N)c1[N+](=O)[O-]` ?
1

Record lookup: outcome of this test for Cc1oc(-c2ccccc2)nc1CCC(=O)c1ccc(CC2SC(=O)NC2=O)cc1 (stereo unspecified) ?
1

Record lookup: outcome of this test for `CCC(N)(CO)CO` ?
0

Record lookup: outcome of this test for `Cc1onc(-c2c(Cl)cccc2Cl)c1C(=O)N[C@@H]1C(=O)N2[C@@H]1SC(C)(C)[C@@H]2C(=O)O` ?
0

Record lookup: outcome of this test for `CS(=O)(=O)CCNCc1ccc(-c2ccc3ncnc(Nc4ccc(OCc5cccc(F)c5)c(Cl)c4)c3c2)o1` ?
1

Record lookup: outcome of this test for `O=c1[nH]sc2ccccc12` ?
1

###

target: Nuclear receptor subfamily 1 group I member 3 (Homo sapiens); assay: qHTS assay to identify small molecule antagonists of the constitutive androstane receptor (CAR) signaling pathway (AID 1224838); conditions: HepG2-CYP2B6-hCAR luciferase, CITCO-stimulated, 24 h; series mostly up to 92.4 µM;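 also: HepG2 cells stably expressing hCAR with CYP2B6 luciferase reporter stimulated by CITCO; nearly all actives have a fitted effect of over 40% in size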; also: potency is read from the fitted curve at half-maximal effect
Inconclusive results are not listed. The source made the active and inactive calls. The call rests on the fitted dose curve; in most records, active means well fitted inhibition curve with a large enough effect in the repeat runs; inconclusive means weak or mixed curves, or effect the other way; inactive means no such curve, though single readings can be large or run the other way.

mol: Cc1[nH]cnc1C[C@H]1CCc2c(C)c3ccccc3n2C1=O
Potency: 59.6 µM (active)
--
mol: CO[Si](CCCNc1ccccc1)(OC)OC
Potency: inactive
--
mol: CCN(Cc1cccnc1)C(=O)c1cccc(Cl)c1[C@]1(C)C(=O)N(Cc2ccc(OC)cc2OC)c2ccc(Cl)cc21
Potency: inactive
--
mol: O=c1[nH]sc2ccccc12
Potency: 21.7 µM (active)

###

assay: qHTS assay to identify small molecule agonists of the constitutive androstane receptor (CAR) signaling pathway - cell viability counter screen (AID 1224836); settings: HepG2-CYP2B6-hCAR viability, CellTiter-Fluor, 23 h, PK11195 added to every well; series mostly up to 92.4 µM; also: nearly all actives have a fitted effect of over 45% in size
Inconclusive results are not listed. Active and inactive are the calls of the source. Calls follow the shape of the dose curve; as a rule, active = well fitted cell-killing curve with a large enough effect in the repeat runs; inconclusive = weak or mixed curves, or effect the other way; inactive = flat fitted curve, though single readings scatter.
Form entry, call: pick from active, inactive

Below, 2 compounds whose answers are already recorded.
compound: CC1=C(C(=O)OC(C)C)C(c2cccc([N+](=O)[O-])c2)C(C(=O)OC2CN(C(c3ccccc3)c3ccccc3)C2)=C(N)N1 (stereo unspecified)
assigned.label: active

compound: Cc1oc(-c2ccccc2)nc1CCC(=O)c1ccc(CC2SC(=O)NC2=O)cc1 (stereo unspecified)
assigned.label: inactive

Record lookup: outcome of this test for `C1CCCC1` ?
inactive

Record lookup: outcome of this test for `CCCC/C=C/CCCCO` ?
inactive

Record lookup: outcome of this test for `C[n+]1cc2c3c(ccc2c2ccc4cc5c(cc4c21)OCO5)OCO3` ?
active

Record lookup: outcome of this test for `Oc1cc2ccccc2c2ccccc12` ?
active
